experiment: Inhibition of tubulin assembly at 13 uM
Recorded inhibition by entry
Respond numerically; units are % and should not be typed.

Solved cases (10 shown):
> print(dat)
                                    molecule  property.measured  recorded.value
 1      COc1cc(C(=O)C(=O)c2ccccc2)cc(OC)c1OC         inhibition              34
 2  COc1ccc(/C=C\c2cc(OC)c(OC)c(OC)c2)cc1O [COMBRETASTATIN A4]         inhibition              77
 3  COc1ccc(C(=O)C(=O)c2cc(OC)c(OC)c(OC)c2)cc1         inhibition              58
 4  COc1ccc(C(=O)C(=O)c2cc(OC)c(OC)c(OC)c2)cc1NC(C)=O         inhibition              45
 5  COc1ccc(C(=O)C(=O)c2cc(OC)c(OC)c(OC)c2)cc1F         inhibition              47
 6   COc1cc(C(=O)C(=O)c2cccc(O)c2)cc(OC)c1OC         inhibition              42
 7  COc1ccc(C(=O)C(=O)c2cc(OC)c(OC)c(OC)c2)cc1N         inhibition              82
 8  COc1cc(C(=O)C(=O)c2ccc3ccccc3c2)cc(OC)c1OC         inhibition              23
 9  COc1ccc(C(=O)C(=O)c2cc(OC)c(OC)c(OC)c2)cc1OC         inhibition              52
10  COc1cc(C(=O)C(=O)c2cnc3ccccc3c2)cc(OC)c1OC         inhibition              35

Query: Recall and state the measured inhibition for COc1ccc(C(=O)C(=O)c2cc(OC)c(OC)c(OC)c2)cc1O .
Reply: 65

Query: Identify measured inhibition associated with COc1cc(C(=O)C(=O)c2ccccc2C#N)cc(OC)c1OC
Reply: 12

---

assay: Inhibition of tubulin assembly
Property Measured: IC50 (µM)
Give the number; µM is assumed, so skip it.

Guide cases for IC50, answers given:
> print(dat)
                              record.smiles  recorded.value
1  COc1ccc(C(=O)C(=O)c2cc(OC)c(OC)c(OC)c2)cc1              21
2  COc1ccc(C(=O)C(=O)c2cc(OC)c(OC)c(OC)c2)cc1OC              63
3  COc1ccc(C(=O)C(=O)c2cc(OC)c(OC)c(OC)c2)cc1N               5

API: the following record is the query input.
Query: Input COc1ccc(C(=O)C(=O)c2cc(OC)c(OC)c(OC)c2)cc1O , output reported IC50.
Reply: 1.5

---

assay: Inhibition of tubulin assembly at 130 uM
Returns the class for an entry based on its inhibition. Class ranges: low range (below 30%), mid range (30% to below 80%), high range (80% or more)

Look over these answered cases.
> print(dat)
                                   compound  label.value
1      COc1cc(C(=O)C(=O)c2ccccn2)cc(OC)c1OC    low range
2   COc1cc(C(=O)C(=O)c2ccccc2C#N)cc(OC)c1OC    low range
3  COc1cc(C(=O)C(=O)c2cnc3ccccc3c2)cc(OC)c1OC    mid range
4  COc1ccc(C(=O)C(=O)c2cc(OC)c(OC)c(OC)c2)cc1   high range
5  COc1ccc(C(=O)C(=O)c2cc(OC)c(OC)c(OC)c2)cc1NC(C)=O    mid range
6  COc1ccc(C(=O)C(=O)c2cc(OC)c(OC)c(OC)c2)cc1OC(C)=O    low range
7  COc1ccc(/C=C\c2cc(OC)c(OC)c(OC)c2)cc1O [COMBRETASTATIN A4]   high range
8  COc1ccc(C(=O)C(=O)c2cc(OC)c(OC)c(OC)c2)cc1N   high range
9  COc1ccc(C(=O)C(=O)c2cc(OC)c(OC)c(OC)c2)cc1OC   high range

Now, please, on to the next compound.
Query: Which inhibition band matches COc1cc(C(=O)C(=O)c2ccc(C#N)cc2)cc(OC)c1OC ?
Reply: low range
